- target or test system: gst-v-Crk (Avian sarcoma virus CT10 (Avian sarcoma …, UniProt P05433))
- procedure text: tryptophan fluorescence titration
measured parameter: Kd (µM)

INSERT INTO measurements (binder, measurement) VALUES
  ('PPPALPPKKK [peptide PPPALPPKKK]', 36.2),
  ('PPPVPPRRRR [SOS-1 peptide (PPPVPPRRRR)]', 23.7),
  ('PPPALPPRKR [C3Gmut(2) peptide (PPPALPPRKR)]', 23.5),
  ('PPPALPPKKA [peptide PPPALPPKKA]', 71.8),
  ('PPPALPPKKR [CB-1 peptide (PPPALPPKKR)]', 25.5);
